Test system: Capan-1, pancreatic adenocarcinoma
Assay: Proliferation assay (MTS, 72 h), Capan-1
Format: cell-based, human
Settings: Homo sapiens, CAPAN-1
observable: IC50 (µM)
The reply should contain only the number, in µM.

The recorded IC50 for entry CCCCCCn1c(N)nc2ccccc21 [Compound 23, 2-Amino-1-hexylbenzimidazole] equals 46.5

The recorded IC50 for entry CCN(CC)c1ccc(/C=N/c2nc3ccc(C#N)cc3n2CC(C)C)c(O)c1 [Compound 31] equals 32.8

###

Tested on: respiratory syncytial virus A (Long)
Assay: Antiviral CPE reduction assay, RSV A in HEL 299
Format: cell-based
Details: human respiratory syncytial virus; HEL 299 cells, 100 CCID50, MTS
observable: EC50

The recorded EC50 for entry `CN(C)c1ccc(/C=N/c2nc3ccccc3n2-c2ccccc2)cc1` equals > 100 µM

The recorded EC50 for entry `CC(C)Cn1c(/N=C/c2ccc([N+](=O)[O-])cc2)nc2ccc(C#N)cc21` equals > 100 µM

The recorded EC50 for entry `Cn1c(N)nc2ccccc21` equals > 100 µM

The recorded EC50 for entry `CCN(CC)c1ccc(/C=N/c2nc3ccc(C#N)cc3n2C)c(O)c1` equals > 100 µM

The recorded EC50 for entry `Cn1c(N)nc2ccc(C#N)cc21` equals 78.7 µM

The recorded EC50 for entry `CC(C)Cn1c(/N=C/c2ccc(N(C)C)cc2)nc2ccc(C#N)cc21` equals > 100 µM
